Where do these numbers come from? They come from ChEMBL document CHEMBL1150282.

Tested on: Heart
method_description: Biodistribution in Sprague-Dawley rat heart at 15 uCi, iv after 120 mins
Format: ADME, organism-based
condition_parameters: in vivo, 2 h
In this section, each of the compounds is paired with its reported Drug uptake.
The reply should be a number in % ID/g, with the unit left off.

These recorded examples may help you get a feel for the data.
compound | target | unit_string | reported_measurement
CC(C)(C)n1ncc(OCc2ccc(OCCCF)cc2)c(Cl)c1=O | Heart | % ID/g | 0.86
CCC(CF)Oc1ccc(COc2cnn(C(C)(C)C)c(=O)c2Cl)cc1 (configuration not stated) | Heart | % ID/g | 1.24
CC(C)(C)n1ncc(OCc2ccc(CCCCF)cc2)c(Cl)c1=O | Heart | % ID/g | 2.99
CC(C)(C)n1ncc(OCc2ccc(COCCF)cc2)c(Cl)c1=O | Heart | % ID/g | 3.47
CC(F)COc1ccc(COc2cnn(C(C)(C)C)c(=O)c2Cl)cc1 (configuration not stated) | Heart | % ID/g | 1.14
[2H]C([2H])(Oc1cnn(C(C)(C)C)c(=O)c1Cl)c1ccc(COC([2H])([2H])C([2H])([2H])F)cc1 | Heart | % ID/g | 1.6

Now look at this one.
Return Drug uptake for the following compound: CC(F)CCc1ccc(COc2cnn(C(C)(C)C)c(=O)c2Cl)cc1 (configuration not stated)
2.14

* * *

In this section, each of the compounds is paired with its reported Activity.
method_description: Ratio of drug uptake in heart to lung of Sprague-Dawley rat at 15 uCi, iv after30 mins
Format: ADME, organism-based
condition_parameters: in vivo, 0.5 h

These recorded examples may help you get a feel for the data.
compound | reported_measurement
CC(C)(C)n1ncc(OCc2ccc(OCCCF)cc2)c(Cl)c1=O | 5.4
CCC(CF)Oc1ccc(COc2cnn(C(C)(C)C)c(=O)c2Cl)cc1 (configuration not stated) | 1.37
[2H]C([2H])(Oc1cnn(C(C)(C)C)c(=O)c1Cl)c1ccc(COC([2H])([2H])C([2H])([2H])F)cc1 | 7.33
CC(F)CCc1ccc(COc2cnn(C(C)(C)C)c(=O)c2Cl)cc1 (configuration not stated) | 12.49
CC(C)(C)n1ncc(OCc2ccc(COCCF)cc2)c(Cl)c1=O | 16.05

Return Activity for the following compound: CC(C)(C)n1ncc(OCc2ccc(CCCCF)cc2)c(Cl)c1=O
14.93

Return Activity for the following compound: CC(F)COc1ccc(COc2cnn(C(C)(C)C)c(=O)c2Cl)cc1 (configuration not stated)
11.41

* * *

Tested on: Heart
method_description: Biodistribution in Sprague-Dawley rat heart at 15 uCi, iv after 30 mins
Format: ADME, organism-based
condition_parameters: in vivo, 0.5 h
measure: Drug uptake (% ID/g)
The reply should be a number in % ID/g, with the unit left off.

These recorded examples may help you get a feel for the data.
compound | measure | reported_measurement
CC(F)COc1ccc(COc2cnn(C(C)(C)C)c(=O)c2Cl)cc1 (configuration not stated) | Drug uptake | 1.15
CC(C)(C)n1ncc(OCc2ccc(OCCCF)cc2)c(Cl)c1=O | Drug uptake | 1.31
CC(C)(C)n1ncc(OCc2ccc(COCCF)cc2)c(Cl)c1=O | Drug uptake | 3.41
CC(C)(C)n1ncc(OCc2ccc(CCCCF)cc2)c(Cl)c1=O | Drug uptake | 2.94
CC(F)CCc1ccc(COc2cnn(C(C)(C)C)c(=O)c2Cl)cc1 (configuration not stated) | Drug uptake | 2.25

Return Drug uptake for the following compound: CCC(CF)Oc1ccc(COc2cnn(C(C)(C)C)c(=O)c2Cl)cc1 (configuration not stated)
1.05

Return Drug uptake for the following compound: [2H]C([2H])(Oc1cnn(C(C)(C)C)c(=O)c1Cl)c1ccc(COC([2H])([2H])C([2H])([2H])F)cc1
1.09
